Please respond with reported Log K for every item in the list.
// no unit, no text: just the number

Result for "Clc1ccccc1Nc1c2ccccc2nc2ccccc12" , tested on Nucleic Acid, Log K: 5.47

Query "Clc1cccc(Nc2c3ccccc3nc3ccccc23)c1" on Nucleic Acid; Log K returned: 6.02

Log K on Nucleic Acid for "Oc1ccccc1Nc1c2ccccc2nc2ccccc12" is 5.42

The compound "CCNc1ccc(Nc2c3ccccc3nc3ccccc23)cc1" , when measured on Nucleic Acid, yielded Log K of 6.36

Entry "CNS(=O)(=O)c1ccc(Nc2c3ccccc3nc3ccccc23)cc1" , tested on Nucleic Acid, has a reported Log K of 5.85

For "COc1cccc(Nc2c3ccccc3nc3ccccc23)c1" on Nucleic Acid, measured Log K was 5.91

Value (Log K, Nucleic Acid) for record "Brc1ccc(Nc2c3ccccc3nc3ccccc23)cc1" = 5.98

The compound "Fc1ccccc1Nc1c2ccccc2nc2ccccc12" , tested on Nucleic Acid, showed Log K of 5.65

Summary: "COC(=O)c1ccccc1Nc1c2ccccc2nc2ccccc12" , Nucleic Acid, Log K = 5.41

Nucleic Acid assay, compound "Fc1ccc(Nc2c3ccccc3nc3ccccc23)cc1" , recorded Log K = 5.85

For "COc1ccccc1Nc1c2ccccc2nc2ccccc12" on Nucleic Acid, measured Log K was 5.47

Item: "N#Cc1ccc(Nc2c3ccccc3nc3ccccc23)cc1" | System: Nucleic Acid | Log K: 5.86

The compound "Cc1ccc(Nc2c3ccccc3nc3ccccc23)cc1" , when measured on Nucleic Acid, yielded Log K of 5.99

Result for "Ic1ccc(Nc2c3ccccc3nc3ccccc23)cc1" , tested on Nucleic Acid, Log K: 6.13

// returns Log K for "CCc1ccccc1Nc1c2ccccc2nc2ccccc12" with Nucleic Acid; value = 5.15

I looked up "Nc1ccc(Nc2c3ccccc3nc3ccccc23)cc1" and its Log K for Nucleic Acid was 6.23

# lookup: "Oc1ccc(Nc2c3ccccc3nc3ccccc23)cc1" on Nucleic Acid, Log K = 6.21

"O=S(=O)(Nc1ccc(Nc2c3ccccc3nc3ccccc23)cc1)c1ccccc1" tested on Nucleic Acid gave Log K: 6.23

The compound "NS(=O)(=O)c1ccc(Nc2c3ccccc3nc3ccccc23)cc1" on Nucleic Acid: Log K was 5.92

The compound "CN(c1ccc(Nc2c3ccccc3nc3ccccc23)cc1)S(C)(=O)=O" , tested on Nucleic Acid, showed Log K of 6

Assay Nucleic Acid, sample "CS(=O)(=O)c1ccc(Nc2c3ccccc3nc3ccccc23)cc1" , Log K read: 5.88

Tested on Nucleic Acid, the item "COC(=O)Nc1ccccc1Nc1c2ccccc2nc2ccccc12" showed Log K equal to 5.78

====

tested on: Nucleic Acid
Kindly supply the reported Log K values for the records listed here.
Give a plain numeric answer without units written out.

For record "O=C(Nc1ccccc1)Nc1ccc(Nc2c3ccccc3nc3ccccc23)cc1" the listed Log K is 6.3

Entry "O=C(Nc1ccc(Nc2c3ccccc3nc3ccccc23)cc1)c1ccccc1" , Log K reported as 6.14

// field: Log K; key: "Ic1ccccc1Nc1c2ccccc2nc2ccccc12" ; value = 5.27

====

Entries with reported Log K on Nucleic Acid
Write the number on its own, no unit after it.

# Log K (molecule: "Fc1ccc(Nc2c3ccccc3nc3ccccc23)cc1" ) is 5.9

Consider "Brc1ccc(Nc2c3ccccc3nc3ccccc23)cc1" . Its measured Log K is 6.02

Memo: "Cc1cccc(Nc2c3ccccc3nc3ccccc23)c1" , reported Log K: 6.09

Per the records, this molecule ( "CC(=O)Nc1cccc(Nc2c3ccccc3nc3ccccc23)c1" ) has Log K equal to 5.9

Per the record, "Oc1cccc(Nc2c3ccccc3nc3ccccc23)c1" has Log K of 6

# Log K of "c1ccc(Nc2c3ccccc3nc3ccccc23)cc1" = 5.86

Lab note: "NC(=O)c1ccc(Nc2c3ccccc3nc3ccccc23)cc1" gave Log K of 5.83
